Attribution: patent US10525055B2

- assay: Plasma stability assay, dog plasma
- Assay type: in vitro ADME
- measurement parameters: 37° C., 2 μM, 120 min (as headed)
readout: % remaining at time point in minutes, 120 min

INSERT INTO measurements (molecule, result) VALUES
  ('C=C1CC[C@@]2(O)C3Cc4ccc(OCOC(=O)OCCCCCCCCCCCC)c5c4[C@@]2(CCN3CC2CC2)[C@H]1O5 [Compound 24]', '104.5%'),
  ('CCCCCCCCCCCC(=O)OCN1C(=O)CCc2ccc(OCCCCN3CCN(c4cccc(Cl)c4Cl)CC3)cc21 [Aripiprazole lauroxil, reference compound]', '81.3%'),
  ('C=C1CC[C@@]2(O)C3Cc4ccc(OC(=O)CCCCCCC/C=C/CCCCCCCC)c5c4[C@@]2(CCN3CC2CC2)[C@H]1O5 [Compound 15]', '80.6%'),
  ('CCCCCCCCCCCCCCCC(=O)OC1CCCn2c1nc(C)c(CCN1CCC(c3noc4cc(F)ccc34)CC1)c2=O (centres unmarked) [Paliperidone palmitate, reference compound]', '88.4%'),
  ('C=C1CC[C@@]2(O)C3Cc4ccc(OC(=O)OCCCCCCCCCCCC)c5c4[C@@]2(CCN3CC2CC2)[C@H]1O5 [Compound 6]', '96.9%');
